Provenance of the data: the NIST ThermoML archive (doi:10.1016/j.jct.2017.08.004)

protocol notes: molar heat capacity at constant pressure
stated conditions: 284.15 K; 101.33 kPa; Crystal; Small sample (50 mg) DSC
parameter: molar heat capacity at constant pressure (J/K/mol)

• OC[C@@H](O)[C@H](O)[C@@H](O)CO [xylitol] = 198.78
• OC[C@H](O)C(O)[C@@H](O)CO [L-(-)-arabitol] = 197.67
• OC[C@@H](O)[C@@H](O)[C@H](O)[C@H](O)CO [D-mannitol] = 219.88
• OC[C@@H](O)[C@@H](O)CO [meso-1,2,3,4-butanetetrol] = 156.55
• O[C@H]1[C@H](O)[C@@H](O)[C@H](O)[C@@H](O)[C@H]1O [cis-1,2,3,5-trans-4,6-cyclohexanehexol] = 206.78
• OC[C@@H](O)C(O)[C@H](O)CO [D-arabitol] = 190.76

---

protocol notes: molar heat capacity at constant pressure
stated conditions: 256.15 K; 101.33 kPa; Crystal; Small sample (50 mg) DSC
parameter: molar heat capacity at constant pressure (J/K/mol)

• OC[C@@H](O)[C@@H](O)CO [meso-1,2,3,4-butanetetrol] = 142.02
• OC[C@@H](O)[C@H](O)[C@@H](O)CO [xylitol] = 179.25
• O[C@H]1[C@H](O)[C@@H](O)[C@H](O)[C@@H](O)[C@H]1O [cis-1,2,3,5-trans-4,6-cyclohexanehexol] = 185.78
• OC[C@H](O)C(O)[C@@H](O)CO [L-(-)-arabitol] = 176.9
• OC[C@@H](O)[C@@H](O)[C@H](O)[C@H](O)CO [D-mannitol] = 199.17
• OC[C@@H](O)C(O)[C@H](O)CO [D-arabitol] = 171.49

---

protocol notes: molar heat capacity at constant pressure
stated conditions: 266.15 K; 101.33 kPa; Crystal; Small sample (50 mg) DSC
parameter: molar heat capacity at constant pressure (J/K/mol)

- O[C@H]1[C@H](O)[C@@H](O)[C@H](O)[C@@H](O)[C@H]1O [cis-1,2,3,5-trans-4,6-cyclohexanehexol]: 193.18
- OC[C@@H](O)C(O)[C@H](O)CO [D-arabitol]: 177.9
- OC[C@H](O)C(O)[C@@H](O)CO [L-(-)-arabitol]: 184.83
- OC[C@@H](O)[C@H](O)[C@@H](O)CO [xylitol]: 186.01
- OC[C@@H](O)[C@@H](O)CO [meso-1,2,3,4-butanetetrol]: 147.21
- OC[C@@H](O)[C@@H](O)[C@H](O)[C@H](O)CO [D-mannitol]: 206.4

---

stated conditions: 15 K; 101.33 kPa; Crystal; relaxation calorimetry
parameter: molar entropy (J/K/mol)

* OC[C@@H](O)C(O)[C@H](O)CO [D-arabitol] | 1.012
* OC[C@@H](O)[C@H](O)[C@@H](O)CO [xylitol] | 1.099
* O[C@H]1[C@H](O)[C@@H](O)[C@H](O)[C@@H](O)[C@H]1O [cis-1,2,3,5-trans-4,6-cyclohexanehexol] | 1.619
* OC[C@H](O)C(O)[C@@H](O)CO [L-(-)-arabitol] | 1.038
* OC[C@@H](O)[C@@H](O)CO [meso-1,2,3,4-butanetetrol] | 1.077
* OC[C@@H](O)[C@@H](O)[C@H](O)[C@H](O)CO [D-mannitol] | 1.202
